Run description: in vitro
Assay readout: cytotoxicity at 10 µM (%)
Please state the figure in %; there is no need to write the unit.

# Molecule, Units symbol, Test value
data = [
    ("Cc1c(O)c(O)cc2c1CC=C1[C@@]2(C)CC[C@@]2(C)[C@@H]3C[C@](C)(C(=O)O)CC[C@]3(C)CC[C@]12C [DIHYDROCELASTROL]", "%", 58.7),
    ("O=Cc1ccccc1O[C@@H]1O[C@H](CO)[C@@H](O)[C@H](O)[C@H]1O", "%", 4.7),
    ("O=C1C[C@@H]2OCC=C3CN4CC[C@]56c7ccccc7N1[C@H]5[C@H]2[C@H]3C[C@H]46", "%", -23.5),
    ("Nc1ccccc1C(=O)CC(N)C(=O)O (stereo not shown)", "%", 28.1),
    ("CC1CCC23CCC4(C)C5(C)CCC6C(C)(C)C(=O)CCC6(C)C5CCC4(OC2=O)C3C1C (stereo not shown) [3-OXOURSAN (28-13)OLIDE]", "%", 99),
]

Exercise: Give its cytotoxicity at 10 µM value. Item: COc1cc(OC)c2c(c1)O[C@H](c1ccc(OC)c(OC)c1)[C@@H](O)C2
Solution: -38.4

Exercise: And C[C@]12CC[C@H](O)CC1=CC[C@@H]1[C@@H]2CC[C@]2(C)C(=O)CC[C@@H]12 [DEHYDROEPIANDROSTERONE] ?
Solution: -1.9

Exercise: Now the same for CC(C)CCC[C@@H](C)[C@H]1CC[C@H]2[C@@H]3CC=C4C[C@@H](O)CC[C@]4(C)[C@H]3CC[C@]12C
Solution: -3.8

Exercise: Ok, now COc1cc2c(cc1OC)-c1c(oc3c4c(ccc3c1=O)OC(C(C)C)C4)CO2 (stereo not shown) [DEHYDRODIHYDROROTENONE]
Solution: 4.4

Exercise: COc1cc(CNC(=O)CCCC/C=C/C(C)C)ccc1O ?
Solution: 0.1

====

Run description: in vitro
Applied conditions: human
Where a name gives a salt, the structure may show the parent alone.
Here, each record is paired with measured cytotoxicity at 41 h, 10 µM data.
Field format: number, assumed %, no unit text.

# Molecule, Assay readout, Test value
measured = [
    ("COc1ccc(C(=O)CC(=O)O)c2c1C=CC(C)(C)O2", "cytotoxicity at 41 h, 10 µM", -37.5),
    ("Cn1cnc2c1c(=O)[nH]c(=O)n2C", "cytotoxicity at 41 h, 10 µM", 2.2),
    ("COc1ccc2c(c1)OCc1c-2oc2cc(OC)ccc12 [DEHYDROVARIABILIN]", "cytotoxicity at 41 h, 10 µM", -33.6),
    ("CC[C@H](C)C(=O)O[C@H]1C[C@@H](C)C=C2C=C[C@H](C)[C@H](CC[C@@H]3C[C@@H](O)CC(=O)O3)[C@H]21 [Lovastatin, reference compound]", "cytotoxicity at 41 h, 10 µM", 34.1),
]

Exercise: Any idea what its cytotoxicity at 41 h, 10 µM is? The molecule is COC(=O)[C@H]1[C@H]2C[C@H]3c4[nH]c5ccccc5c4CCN3C[C@H]2CC[C@@H]1O [RAUWOLSCINE HYDROCHLORIDE]
Solution: -12.6

Exercise: Please do the same for C/C1=C\CCC(=O)C2CC(C)(C)C2CC1 (centres unmarked) as well.
Solution: -3.6

Exercise: Queued: O=C(/C=C/c1ccc(O)c(O)c1)O[C@@H]1C[C@](O)(C(=O)O)C[C@@H](O)[C@H]1O
Solution: -9.1

Exercise: Another molecule to look at: C=CCc1ccc(O)c(OC)c1
Solution: -28.5

Exercise: Now the molecule CCOc1ccc(C(=O)c2ccc(O)c(O)c2O)cc1 [2,3,4-TRIHYDROXY-4'-ETHOXYBENZOPHENONE]
Solution: 14.4

Exercise: What do you have for Nc1nc2ncc(CNc3ccc(C(=O)N[C@@H](CCC(=O)O)C(=O)O)cc3)nc2c(=O)[nH]1 ?
Solution: 1.3

Exercise: Same again, this time with COC(=O)c1c(C)c2c(c(C)c1O)OC(=O)c1c(C)c(Cl)c(O)c(Cl)c1O2
Solution: 24.9

Exercise: Can you check NC[C@H]1O[C@H](O[C@H]2[C@H](O)[C@@H](O[C@H]3O[C@H](CO)[C@@H](O)[C@H](N)[C@H]3O)[C@H](N)C[C@@H]2N)[C@H](N)C[C@@H]1O next?
Solution: -40.8

Exercise: Now consider CCCCCc1c2c(cc(O)c1C(=O)O)OC(=O)c1c(cc(OC)cc1C(=O)CCCC)O2 .
Solution: 13.1

Exercise: Same question, CC(C)CCC[C@@H](C)[C@H]1CC[C@H]2[C@@H]3CC=C4CC(=O)CC[C@]4(C)[C@H]3CC[C@]12C this time
Solution: 2.7

Exercise: Now give it for O=c1ccc2ccccc2o1 too.
Solution: -3.8

Exercise: Try this molecule next: COc1cc(O)c(C)c(O)c1 [2,6-DIHYDROXY-4-METHOXYTOLUENE]
Solution: 4.4

Exercise: Same read-out for CCc1ccc2c(O)c3c(cc2c1C(=O)OC)C(=O)c1c(O)ccc(O)c1C3=O [BISANHYDRORUTILANTINONE] ?
Solution: -12

====

Run description: in vitro
Applied conditions: human
Structures can show the parent of a compound that is named as a salt.
Assay readout: cytotoxicity at 41 h, 10 µM (%)
Reply with just the number (in %).

The examples below pair each entry with its known result.
# Compound, cytotoxicity at 41 h, 10 µM / %
measured = [
    ("COc1ccc(C(C)=O)c(O)c1", 0.8),
    ("CC1(C)C(=O)C=C[C@@]2(C)C1=C(O)C(=O)[C@]1(C)[C@@H]2CC[C@@]2(C)[C@H](c3ccoc3)C[C@H]3O[C@]321", 61.7),
]

Exercise: Which cytotoxicity at 41 h, 10 µM value is on record for COc1cccc2c1C(=O)c1c(O)c3c(c(O)c1C2=O)C[C@@](O)(C(C)=O)C[C@@H]3O[C@H]1C[C@H](N)[C@H](O)[C@H](C)O1 [Daunorubicin, reference compound] ?
Solution: 49.5

Exercise: Similarly, C[C@]12CC[C@@H](O)C[C@H]1CCc1ccccc12 ?
Solution: -4.1

Exercise: Let us now turn to C[N+](C)(C)CC(=O)O [BETAINE HYDROCHLORIDE]
Solution: -30

Exercise: What about NC(=O)NC1NC(=O)NC1=O (centres unmarked) ?
Solution: -16.1

====

Test system: HCT-8 host cells (Hs18S)
Applied conditions: primary screening at 10 uM, treated vs control
Structures can show the parent of a compound that is named as a salt.
Think of 0.06 as a floor: if Hs18S ΔCT stands on it or above, it is 1.0; beneath it, 0.0.

// below: answered compounds
# Compound, Label
data = [
    ("OC[C@H]1O[C@H](O[C@H]2[C@H](O)[C@@H](O)[C@H](O)O[C@@H]2CO)[C@H](O)[C@@H](O)[C@@H]1O [D-(+)-MALTOSE]", 0.0),
    ("CC(=O)OCC(OC(C)=O)C(OC(C)=O)C(OC(C)=O)C(OC(C)=O)C(COC(C)=O)OC(C)=O (centres unmarked) [PERSEITOL HEPTAACETATE]", 0.0),
    ("CN(C)[C@@H]1C(O)=C(C(N)=O)C(=O)[C@@]2(O)C(O)=C3C(=O)c4c(O)ccc(Cl)c4[C@@](C)(O)[C@H]3C[C@@H]12 [CHLORTETRACYCLINE HYDROCHLORIDE]", 0.0),
    ("O=c1cc(-c2ccc(O)cc2)oc2ccc(O)cc12 [6,4'-DIHYDROXYFLAVONE]", 1.0),
    ("CC(=O)[C@H]1CC[C@H]2[C@@H]3CCC4C[C@H](O)CC[C@]4(C)[C@H]3C[C@H](O)[C@]12C (stereo partly drawn) [DIHYDROXY (3alpha,12alpha)PREGNAN-20-ONE]", 0.0),
]

# input for lookup
Exercise: Determine whether measured Hs18S ΔCT meets or exceeds 0.06 for OCc1c[nH]c2ccccc12
Solution: 0.0

====

Tested on: HCT-8 host cells (Hs18S)
Applied conditions: primary screening at 10 uM, from Hs18S ΔCT
Catalogue of Cytotoxicity (%) values
# output: bare number, implied unit %

# Molecule, Units symbol, Cytotoxicity (%)
data = [
    ("CN1CCc2cc3c(cc2[C@H]1[C@@H]1OC(=O)c2c1ccc1c2OCO1)OCO3 [BICUCULLINE (+)]", "%", -169.4),
]

Exercise: Returns the measured Cytotoxicity (%) for the input molecule. Input: O=C(O)CC[N+](=O)[O-]
Solution: -25.1

Exercise: Now consider CC(=O)OCC(OC(C)=O)C(OC(C)=O)C(OC(C)=O)C(OC(C)=O)C(COC(C)=O)OC(C)=O (centres unmarked) [PERSEITOL HEPTAACETATE] and answer again.
Solution: -10.1

Taken from paper PMC6736568.
